Cited source: PubChem BioAssay (NCI)

Method summary: NCI Yeast Anticancer Drug Screen. Data for the cln2 rad14 strain (AID 165);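 note: 0% = growth equal to vehicle treated cultures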
Assay context: S. cerevisiae cln2 rad14 strain, at 50.0 µM, active compounds read high
Compounds without any hit were thinned out: in the full panel of roughly 79,000, 15% have a hit.

# Molecule, Value units, growth inhibition
rows = [
    ("COC(=O)c1ccc2c(c1)CC1(C2)Cc2cc3c(cc2C1=O)CCC3 (stereo unspecified)", "%", -3.15),
    ("CN(c1ccc(Cl)cc1)S(=O)(=O)c1ccc([N+](=O)[O-])cc1", "%", 32.4),
    ("O=S1(=O)CS(=O)(=O)OCCCCO1", "%", 13.3),
    ("N#CC(c1cnc2ccccc2n1)c1cccc2ccccc12 (stereo unspecified)", "%", -5.75),
    ("C=CCCCC(C#N)c1ccc2c(c1)OCO2 (stereo unspecified)", "%", -82),
    ("CC1CN=C(c2ccccc2)C(c2ccccc2)=N1 (stereo unspecified)", "%", -6.15),
    ("N/N=C1\\CC(=O)NC(=O)N1", "%", 1.8),
    ("Cc1ccc(F)cc1S(N)(=O)=O", "%", -14.4),
    ("CSC12CC3C(=O)C=C[C@@H](O)[C@@H]3N1C(=O)C1(SC)CC3C(=O)C=C[C@@H](O)[C@@H]3N1C2=O (stereo partly specified)", "%", 39.8),
    ("Clc1cnnc2nc[nH]c12", "%", -28.1),
    ("O=C1C2CC3CC(C2)CC1C3", "%", 9.25),
    ("CCc1c[nH]c(C=O)c1CC", "%", 11.4),
    ("O=C1NC(=O)C(c2ccc(O)cc2)N1 (stereo unspecified)", "%", -30.9),
    ("CC(=O)NNc1nc(C)c(C(/C=C/c2ccccc2O)=N/NC(=O)c2ccncc2)s1", "%", 26.6),
    ("CC(C)N(C(=O)C12C3C4C5C3C1(C(=O)N(C(C)C)C(C)C)C5C42)C(C)C (stereo unspecified)", "%", 1),
    ("C=C(C)C(=O)Nc1ccc(-n2[nH]c(C)c(N=Nc3ccc(N(C)C)cc3)c2=O)cc1", "%", -36),
    ("COc1cc(-c2c(C#N)c(OC)[nH]c(=O)c2C#N)cc(OC)c1OC", "%", 13.4),
    ("O=C1NC(=O)N2CCCOC2C1c1ccccc1 (stereo unspecified)", "%", -10.2),
    ("C/C(=N/NC(=S)N1CCCCCC1)c1ccccc1O", "%", 45.4),
    ("CC1CN(CC2COc3ccccc3O2)C(C)CN1 (stereo unspecified)", "%", 58.5),
    ("N#CSCCOCCOC(=O)NC1CCCCC1", "%", 5.25),
    ("CS(=O)(=O)N1CC(CCl)c2ccc(NO)cc21 (stereo unspecified)", "%", 17.3),
    ("CCc1nnc(CC)n1NC(=O)Nc1ccc(C)cc1", "%", 7.05),
    ("CCOC(=O)Nc1nc2ccn(C)c2s1", "%", -6.4),
    ("CCOC(=O)C(C)NCc1ccccc1 (stereo unspecified)", "%", -39.6),
    ("O=C(NC(CC(NC(=O)OCc1ccccc1)NC(=O)OCc1ccccc1)NC(=O)OCc1ccccc1)OCc1ccccc1", "%", 5.6),
]

----------
Examples of compounds with documented growth inhibition follow.
Method summary: NCI Yeast Anticancer Drug Screen. Data for the mec2-1 strain (AID 157)
Assay context: S. cerevisiae mec2-1 strain, at 50.0 µM, active compounds read high
The panel holds about 79,000 compounds, 15% with a hit somewhere; the sample as a whole holds those more often. Active and inactive are the calls of the source. Rule as the data show it: active = growth inhibition above about 70%; inactive = the rest.

# Compound, growth inhibition
measured = [
    ("CN(C)CCCOc1nc2c(c(=O)n(C)c(=O)n2C)n1C (tested in a mixture with another compound)", "8.9% (inactive)"),
    ("N#CC1(OC2OC(CO)C(O)C(O)C2O)C=CCC1 (stereo unspecified)", "-33% (inactive)"),
    ("COC(=O)c1ccc2c(ccc[n+]2C)c1", "21.3% (inactive)"),
    ("OC1CCC(C2CCCCC2)CC1 (stereo unspecified)", "-8.05% (inactive)"),
    ("COC(=O)C1C(O)C(C)C(O)OC1C(C)C(O)C(C)/C=C\\C=C(/C)C(=O)Nc1c(C)c(OC(C)=O)c2c(c1O)C(=O)C(C)=C1OCOC(/C(C)=C/C(C)=O)=C12 (stereo unspecified)", "8.3% (inactive)"),
    ("O=C(CSc1cc(Cl)c(Cl)cc1Cl)Nc1cccc(Cl)c1", "-6.9% (inactive)"),
    ("CC(=O)Nc1ccc(S(=O)(=O)N=S(C)C)cc1", "-9.05% (inactive)"),
    ("OCc1ccc(CO)o1", "15.7% (inactive)"),
    ("CC(=O)OC1CC2CC3C(C)CCC3(C2(C)C)C1(C)O (stereo unspecified)", "-0.25% (inactive)"),
    ("CC(=O)OCC1COC(C)(c2ccccc2)O1 (stereo unspecified)", "0.3% (inactive)"),
    ("COc1cc(C(SCc2ccccc2)SCc2ccccc2)ccc1O", "12.2% (inactive)"),
]

----------
Examples of molecules with documented growth inhibition follow.
Method summary: NCI Yeast Anticancer Drug Screen. Data for the rad50 strain (AID 155);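 note: 0% = growth of vehicle-only cultures of the same strain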
Assay context: S. cerevisiae rad50 strain growth inhibition; at 50.0 µM; active compounds read high
Experimental: Growth inhibition of yeast strains with defined genetic alterations is measured as a screen for potential anti-cancer activity. Selected strains with alterations in DNA damage repair or cell cycle control were exposed to compounds and growth inhibition was measured relative to vehicle treated controls. The strain used in this assay is rad50
About 79,000 compounds went through this panel and 15% of them were active in at least one assay; those are over-represented in the sample as a whole.
Parameter measured: growth inhibition (%)

# Molecule, Reading
measured = [
    ("NC(=O)N/N=C/c1cccc(O)c1O", 6),
    ("COc1ccc(Cl)cc1Cl", 6.8),
    ("C=C(C)CNCC(=C)C", 35.3),
    ("CC(=O)c1ccc(C(=O)O)cc1", 13.7),
    ("CCOC(=O)c1cnc2ccccc2c1", 3.65),
    ("N=S(c1ccccc1)c1ccccc1[N+](=O)[O-] (stereo unspecified)", 16.2),
    ("CC(C)CSC(SCC(C)C)C(O)C(O)C(O)CO (stereo unspecified)", -6.85),
    ("CCOC(=O)C(C)(Cc1ccco1)C(=O)OCC", -16.1),
    ("COC(=O)c1cccn1C(=O)c1ccc(C)c(OCc2ccccc2)c1[N+](=O)[O-]", 1.6),
    ("CCOC(=O)C(O)Cc1cnc2ccccc2n1 (stereo unspecified)", -1.45),
    ("CC(C)CCCC(C)C1CCC2(C)C3=C(CCC12C)C1(C)Cc2cnn(-c4ccccc4)c2C(C)(C)C1CC3 (stereo unspecified)", -6.4),
    ("O=c1[nH]c(=O)n(C2OC(CO)C(O)C2O)cc1Oc1ccccc1 (stereo unspecified)", 7.8),
    ("CC(O)(COS(=O)(=O)c1ccccc1)c1ccccc1 (stereo unspecified)", -8.1),
    ("CSc1nc(C)c(Br)c(=O)n1C1OC(COC(C)=O)C(OC(C)=O)C(OC(C)=O)C1OC(C)=O (stereo unspecified)", -1.2),
    ("CNc1c(C)cc(C#N)cc1C", 7.45),
    ("O=C(O)C1C2C3CCC(C3)C12 (stereo unspecified)", 2.7),
    ("Cc1cc(O)c([N+](=O)[O-])cc1C", -8.05),
    ("CCCCCCCCCCCCCCCCO", -14.4),
    ("O=C1CCC2(O1)c1ccc(O)cc1Oc1cc(O)ccc12", 1.05),
    ("COC(=O)CC#N", -13.3),
    ("O=C(Nc1nc(=S)[nH][nH]1)C(=O)C(c1cnc2ccc([N+](=O)[O-])cc2n1)[N+](=O)[O-] (stereo unspecified)", -4.5),
    ("CC(=O)OC1C(C)OC(n2cnc3c(=O)[nH]cnc32)C(OC(C)=O)C1OC(C)=O (stereo unspecified)", 37.1),
    ("CCOc1c(OC)ccc(C(C)=O)c1O", -17.8),
    ("CN(C)CCC(c1ccccc1)c1ccccc1", -22.4),
    ("O=[N+]([O-])c1ccc(OCCSc2ccccc2)cc1", 9),
    ("Nc1cccc(C(=O)O)c1C(=O)O", 19.7),
]

----------
Examples of molecules with documented growth inhibition follow.
Method summary: NCI Yeast Anticancer Drug Screen. Data for the rad50 strain (AID 155);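 note: 0% = growth of vehicle-only cultures of the same strain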
Assay context: S. cerevisiae rad50 strain growth inhibition; at 50.0 µM; active compounds read high
About 79,000 compounds went through this panel and 15% of them were active in at least one assay; those are over-represented in the sample as a whole.

# Molecule, growth inhibition / %
records = [
    ("CCOc1ncnc2ccc(Cl)cc12", -8.65),
    ("CS(=O)(=O)OC1C(OC(=O)c2ccccc2)OC(COC(=O)c2ccccc2)C1OC(=O)c1ccccc1 (stereo unspecified)", 14.8),
    ("CCC(=O)NCCCCCN1CCCCC1", 8.55),
    ("CCCC(=O)c1ccc(O)cc1", 4.65),
    ("O=C(N/N=C/c1ccc(Cl)cc1)c1ccccc1NC(=O)C1CC1", -3.85),
    ("CCN1C(=O)C(N=[N+]=[N-])(c2ccccc2)C(=O)c2ccccc21 (stereo unspecified)", 10.5),
    ("CC(=O)N=C1CSc2ccccc2N1C", -1.15),
    ("NC(=O)NC(NC(=O)NC(NC(N)=O)c1ccco1)c1ccco1 (stereo unspecified)", 11.3),
    ("COS(=O)(=O)OC1(SC)C=C(c2ccccc2)SS1 (stereo unspecified)", 73),
    ("CSC(=NNC(N)=O)SC", 4.4),
    ("COC(=O)c1cc(-c2cccnc2)[nH]c(=O)c1C#N", -5.4),
    ("c1ccc2c(c1)C1C3c4ccccc4C1C1C2C31", 5.1),
    ("Cc1ncc([N+](=O)[O-])n1CCCl", -1.8),
    ("CN(C)CCCNCc1c[nH]c(=O)[nH]c1=O", -4.75),
    ("O=S1c2ccccc2Sc2ccccc21", 2.65),
    ("Cc1ccc(N=C=C(c2ccc(Cl)cc2)c2ccc(Cl)cc2)cc1", 73.2),
    ("COC(=O)C1C(=O)c2ccccc2C(C)C1c1ccccc1C (stereo unspecified)", 5),
    ("O=C(Nc1ccccc1C(=O)NCc1ccccc1)/C(=C/c1ccccc1)NC(=O)c1ccccc1", 7.25),
    ("O=[N+]([O-])C1CCCCC1", -11.8),
    ("OC(C/C(=N\\Nc1ccccc1)c1ccc(F)cc1)(C(F)(F)F)C(F)(F)F", 98.3),
    ("O=C(Nc1ccc(Cl)cc1)Nc1nnc2nc(C3(c4nc5nnc(NC(=O)Nc6ccc(Cl)cc6)n5[nH]c4=O)Cc4ccccc4C3=O)c(=O)[nH]n12", 29.5),
    ("CCCC(C(=O)O)(c1ccccc1)c1ccccc1", 11.3),
    ("CN(C)c1cccc([N+](=O)[O-])c1", -54.5),
    ("CCN(C(=N)C#N)c1ccccc1", 29.8),
    ("CN(C)C(=S)Oc1ccc([N+](C)(C)C)cc1", -3.7),
    ("COc1ccc(/C=C/C(=O)C(C)(C)CN(C)CCN(C)C)cc1", -36),
]
